Test system: RAW264.7
Experiment: Antiinflammatory activity against mouse RAW264.7 cells assessed as inhibition of LPS-induced NO production at 10 uM preincubated for 1 hrs followed by LPS stimulation and measured after 24 hrs by Griess assay relative to control
Type: functional
Conditions: time 25 hrs
Record True whenever inhibition at 10 µM is at 40% or higher; record False when lower.

Query: Does the reported inhibition at 10 µM for CCCc1nn(C)c2c(NCCc3ccccc3)nc(/C=C/c3nc(C)c(C)nc3C)nc12 fall at or above the 40% mark?
Reply: True

Query: Check the entry COc1cc(/C=C/c2nc(Cl)cc(NCCc3ccc(F)cc3)n2)cc(OC)c1OC : does inhibition at 10 µM equal or exceed 40%?
Reply: True

Query: Record COc1cc(/C=C/c2nc(Nc3ccc(C(C)C)cc3)c3sccc3n2)cc(OC)c1OC ; criterion: inhibition at 10 µM no lower than 40%. Met?
Reply: False

Query: # check: inhibition at 10 µM of Brc1ccc(CNc2nc(/C=C/c3ccccc3)nc3ccsc23)cc1 is greater than or equal to 40%
Reply: False

Query: Given COc1ccc(CNc2nc(/C=C/c3cc(OC)c(OC)c(OC)c3)nc3ccsc23)cc1 , state whether its inhibition at 10 µM is at least 40%.
Reply: True

Query: Identify whether the reported inhibition at 10 µM of the following compound is 40% or greater: COc1cccc(CNc2nc(/C=C/c3ccccc3)nc3ccsc23)c1
Reply: False

Query: Could you please find out whether Fc1ccccc1CCNc1nc(/C=C/c2ccccc2)nc2ccsc12 has inhibition at 10 µM that meets 40% or exceeds it?
Reply: False

Query: Could you tell me if the measured inhibition at 10 µM of C(=C\c1nc(N2CCOCC2)c2sccc2n1)/c1ccccc1 reaches 40% or more?
Reply: False

Query: hey, is inhibition at 10 µM for this one >= 40%? CCCc1nn(C)c2c(NC(C)C)nc(CCc3cccnc3)nc12
Reply: False

Query: Does the compound CCCc1nn(C)c2c(N3CCOCC3)nc(/C=C/c3nc(C)c(C)nc3C)nc12 have recorded inhibition at 10 µM that is 40% or more?
Reply: True

Query: Could you tell me if the measured inhibition at 10 µM of CCCc1nn(C)c2c(N3CCOCC3)nc(CCc3cccnc3)nc12 reaches 40% or more?
Reply: False

Query: # check: inhibition at 10 µM of Brc1ccc(Nc2nc(/C=C/c3ccccc3)nc3ccsc23)cc1 is greater than or equal to 40%
Reply: False

Query: Would you say COc1cc(/C=C/c2nc(NCc3ccc(Cl)cc3)c3sccc3n2)cc(OC)c1OC shows inhibition at 10 µM at minimum 40%?
Reply: True

Query: Dear colleague, could you confirm whether CCCCNc1nc(/C=C/c2ccccc2)nc2ccsc12 has inhibition at 10 µM at or above 40%?
Reply: False

Query: Say whether C(=C\c1ccco1)/c1nc(NCc2ccccc2)c2sccc2n1 shows inhibition at 10 µM of 40% or more.
Reply: True

Query: Is reported inhibition at 10 µM greater than or equal to 40% here: COc1cc(/C=C/c2nc(NCc3ccc(C)cc3)c3sccc3n2)cc(OC)c1OC
Reply: True

Query: Decide: inhibition at 10 µM of CCCc1nn(C)c2c(NC(C)C)nc(/C=C/c3ccc[n+]([O-])c3)nc12 >= 40%?
Reply: True

Query: Threshold query (inhibition at 10 µM >= 40%) on C(=C\c1nc(Nc2ccccc2)c2sccc2n1)/c1ccccc1
Reply: False

Query: Hi, just wondering whether Fc1ccc(CNc2nc(/C=C/c3ccccc3)nc3ccsc23)cc1 shows inhibition at 10 µM of 40% or higher.
Reply: False

Query: Quick check, inhibition at 10 µM >= 40%? C[C@@H]1C[C@H]2[C@@H]3CCC4=CC(=O)C=C[C@]4(C)[C@@]3(F)[C@@H](O)C[C@]2(C)[C@@]1(O)C(=O)CO [DEXAMETHASONE]
Reply: True

Query: Dear colleague, could you confirm whether COc1cc(/C=C/c2nc(Nc3ccc(C)cc3)c3sccc3n2)cc(OC)c1OC has inhibition at 10 µM at or above 40%?
Reply: False

Query: For this compound, is measured inhibition at 10 µM 40% or higher? COc1cc(/C=C/c2nc(N3CCCC3)c3sccc3n2)cc(OC)c1OC
Reply: False

Query: Is inhibition at 10 µM for COc1cc(/C=C/c2nc(N3CCOCC3)c3sccc3n2)cc(OC)c1OC at or above 40%?
Reply: False

Query: State whether the measured inhibition at 10 µM reaches 40%, counting equality as reaching it, for Fc1ccc(CCNc2nc(/C=C/c3ccccc3)nc3ccsc23)cc1
Reply: False

The origin of these recorded values is ChEMBL document CHEMBL4813945.
